experiment: inhibitors of PMA/ionomycin-induced NF-kB reporter, primary screen, antigen receptor NF-kB inhibitor project, cell-based, HEK-293 luciferase reporter, luminescence (AID 465); details: HEK-293 NF-kB luciferase reporter, at 3 µM, active compounds read high;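 also: 0% = stimulated DMSO wells and 100% = 10 µM reference inhibitor 5653914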
The whole screen tested about 62,000 compounds, of which about 130 (0.21%) were called active. This excerpt belongs to a sample that is enriched for actives.
# inhibition annotations
REPORTED ENDPOINT: inhibition (%)

compound=COc1ccc(C(=O)Nc2ccc3c(c2)OCO3)cc1OC measurement=-6.2
compound=C=CCNC(=O)c1cc(-c2ccccc2O)on1 measurement=-6.4
compound=CCOc1cc(C(=O)N2CCc3cc(OC)c(OC)cc3C2)ccc1OC(F)F measurement=31.7
compound=Cn1c(NC(=O)c2ccc3c(c2)OCO3)cc(=O)n(C)c1=O measurement=-1.2
compound=CCOc1ccc(OCc2ccc(C(=O)Nc3cccc(C)n3)o2)cc1 measurement=-17.7
compound="CCCC(CCC(=O)OC)(C(=O)OCC)c1csc(N)n1 (stereo unspecified)" measurement=2.1
